# Study Target: Mot3 (UniProt P54785)
# Sequence: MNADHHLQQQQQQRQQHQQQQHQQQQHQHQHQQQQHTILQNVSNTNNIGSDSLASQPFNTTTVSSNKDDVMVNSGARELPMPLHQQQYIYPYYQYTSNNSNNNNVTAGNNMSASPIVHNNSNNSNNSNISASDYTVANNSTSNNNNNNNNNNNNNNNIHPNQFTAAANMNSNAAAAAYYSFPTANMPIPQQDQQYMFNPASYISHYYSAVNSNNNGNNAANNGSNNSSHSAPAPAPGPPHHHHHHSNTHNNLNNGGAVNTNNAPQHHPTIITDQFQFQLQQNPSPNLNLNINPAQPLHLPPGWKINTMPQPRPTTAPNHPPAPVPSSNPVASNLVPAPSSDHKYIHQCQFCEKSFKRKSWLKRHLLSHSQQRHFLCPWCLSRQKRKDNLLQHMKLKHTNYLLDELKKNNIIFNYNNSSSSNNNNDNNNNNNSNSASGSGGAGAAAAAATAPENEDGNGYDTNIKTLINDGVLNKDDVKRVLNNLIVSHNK
# Assay Info: PBM E-score (8-mer binding enrichment) (E-score (-0.5 to 0.5)); higher = stronger / more preferred TF binding
# Run Conditions: protein concentration: 200 nM; construct: GST-full length
Whole data set: some 33,000 sequences, median “E-score (-0.5 to 0.5)” near -0.035, cut for the highest 2% near 0.34. This is one part of a sample in which the highest values are shown more often than they occur.
Use rule met when the recorded PBM E-score is no lower than 0.04; use rule not met when it is lower.

input_sequence=TACCCAAA class_assignment="rule met"

Q) Would you say `ACACGATG` shows PBM E-score at minimum 0.04?
A) rule met

Q) Would you say `ATCTCCGA` shows PBM E-score at minimum 0.04?
A) rule not met

Q) Would you say `AGGCACAA` shows PBM E-score at minimum 0.04?
A) rule met

Q) Would you say `AGAGGCAC` shows PBM E-score at minimum 0.04?
A) rule met

Q) Would you say `ACAGGCGA` shows PBM E-score at minimum 0.04?
A) rule met

Q) Would you say `ATCAGGCG` shows PBM E-score at minimum 0.04?
A) rule not met

Q) Would you say `GACTGTGA` shows PBM E-score at minimum 0.04?
A) rule not met
